System: Escherichia coli TOP10;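 note: peptides expressed intracellularly from a pBAD plasmid library in pooled LB shake-flask culture, induced with 0.3% L-arabinose, DNA abundance read by NGS, three biological replicates, DESeq2 with apeglm shrinkage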
TEST_DESCRIPTION: shrunken log2 fold change of peptide-encoding DNA abundance (4.5 h post-induction vs induction); higher = less antimicrobial activity (less host growth inhibition)
CONDITION_NOTES: time post-induction: 4.5 h; library: site-saturation at positions 5, 18, 19, 20
Please enter fulfilled where shrunken log2 fold change is greater than or equal to -0.05, and not fulfilled where it is lower.

>>> assigned_label("RRIRLRPPRLPRPRPRPDGNPRP")
"fulfilled"
>>> assigned_label("RRIRMRPPRLPRPRPRPFGLPRP")
"fulfilled"
>>> assigned_label("RRIRERPPRLPRPRPRPADYPRP")
"not fulfilled"
>>> assigned_label("RRIRGRPPRLPRPRPRPGASPRP")
"fulfilled"
>>> assigned_label("RRIRRRPPRLPRPRPRPVIIPRP")
"not fulfilled"
>>> assigned_label("RRIRIRPPRLPRPRPRPICAPRP")
"fulfilled"
>>> assigned_label("RRIRHRPPRLPRPRPRPTAYPRP")
"not fulfilled"
>>> assigned_label("RRIRIRPPRLPRPRPRPGHCPRP")
"not fulfilled"
>>> assigned_label("RRIRRRPPRLPRPRPRPCCVPRP")
"fulfilled"
>>> assigned_label("RRIRFRPPRLPRPRPRPKGQPRP")
"fulfilled"
>>> assigned_label("RRIRWRPPRLPRPRPRPCNWPRP")
"fulfilled"
>>> assigned_label("RRIRWRPPRLPRPRPRPYYRPRP")
"not fulfilled"
>>> assigned_label("RRIRNRPPRLPRPRPRPTFHPRP")
"not fulfilled"
>>> assigned_label("RRIRWRPPRLPRPRPRPIGHPRP")
"fulfilled"
>>> assigned_label("RRIRDRPPRLPRPRPRPLTNPRP")
"not fulfilled"
>>> assigned_label("RRIRNRPPRLPRPRPRPFLWPRP")
"not fulfilled"
>>> assigned_label("RRIRYRPPRLPRPRPRPNAPPRP")
"not fulfilled"
>>> assigned_label("RRIRMRPPRLPRPRPRPGYEPRP")
"fulfilled"
>>> assigned_label("RRIRARPPRLPRPRPRPAVQPRP")
"fulfilled"
>>> assigned_label("RRIRLRPPRLPRPRPRPACLPRP")
"fulfilled"
>>> assigned_label("RRIRCRPPRLPRPRPRPCTKPRP")
"not fulfilled"
>>> assigned_label("RRIRWRPPRLPRPRPRPDIGPRP")
"fulfilled"
>>> assigned_label("RRIRRRPPRLPRPRPRPGVEPRP")
"fulfilled"
>>> assigned_label("RRIRQRPPRLPRPRPRPMVLPRP")
"fulfilled"
>>> assigned_label("RRIRSRPPRLPRPRPRPVWSPRP")
"fulfilled"
>>> assigned_label("RRIRMRPPRLPRPRPRPFYDPRP")
"not fulfilled"
>>> assigned_label("RRIRERPPRLPRPRPRPVYVPRP")
"not fulfilled"
>>> assigned_label("RRIRPRPPRLPRPRPRPADMPRP")
"fulfilled"
>>> assigned_label("RRIRTRPPRLPRPRPRPRPYPRP")
"not fulfilled"
>>> assigned_label("RRIRGRPPRLPRPRPRPVFNPRP")
"fulfilled"
>>> assigned_label("RRIRNRPPRLPRPRPRPFSNPRP")
"not fulfilled"
>>> assigned_label("RRIRKRPPRLPRPRPRPSINPRP")
"fulfilled"
>>> assigned_label("RRIRMRPPRLPRPRPRPHHGPRP")
"not fulfilled"
>>> assigned_label("RRIRGRPPRLPRPRPRPQHMPRP")
"fulfilled"
>>> assigned_label("RRIRKRPPRLPRPRPRPAWNPRP")
"fulfilled"
>>> assigned_label("RRIRQRPPRLPRPRPRPKVMPRP")
"fulfilled"
>>> assigned_label("RRIRTRPPRLPRPRPRPRFWPRP")
"fulfilled"
>>> assigned_label("RRIRRRPPRLPRPRPRPYTMPRP")
"not fulfilled"
>>> assigned_label("RRIRKRPPRLPRPRPRPMNFPRP")
"fulfilled"
>>> assigned_label("RRIRPRPPRLPRPRPRPVTNPRP")
"not fulfilled"
>>> assigned_label("RRIRYRPPRLPRPRPRPPNAPRP")
"fulfilled"
>>> assigned_label("RRIRDRPPRLPRPRPRPYPQPRP")
"not fulfilled"
>>> assigned_label("RRIRPRPPRLPRPRPRPTRRPRP")
"fulfilled"
>>> assigned_label("RRIRPRPPRLPRPRPRPYLPPRP")
"not fulfilled"
>>> assigned_label("RRIRWRPPRLPRPRPRPDFFPRP")
"fulfilled"
>>> assigned_label("RRIRVRPPRLPRPRPRPWFQPRP")
"not fulfilled"
>>> assigned_label("RRIRPRPPRLPRPRPRPFDEPRP")
"not fulfilled"
